Recorded values, source ChEMBL document CHEMBL5316283.

PROCEDURE_DETAILS: Tmax in mouse at 100 mg/kg, po
Format: ADME, organism-based
CONDITION_INFO: in vivo
Overview of reported Tmax across a group of molecules:
OBSERVABLE: Tmax

{"COMPOUND_STRING": "CCNC(=O)c1ccc2c([C@H]3CCN(CC4(O)CCCCC4)C[C@@H]3C)c(C)nn2c1", "OBSERVABLE": "Tmax", "REPORTED_MEASUREMENT": "30 min"}
{"COMPOUND_STRING": "CCNC(=O)c1ccc2c(c1)nc(C(F)F)n2[C@H]1CCN(CC2(O)CCCCC2)C[C@@H]1C", "OBSERVABLE": "Tmax", "REPORTED_MEASUREMENT": "48 min"}

###

STUDY_SYSTEM: Protein AF-9 (Homo sapiens, UniProt P42568)
Sequence (P42568 whole entry): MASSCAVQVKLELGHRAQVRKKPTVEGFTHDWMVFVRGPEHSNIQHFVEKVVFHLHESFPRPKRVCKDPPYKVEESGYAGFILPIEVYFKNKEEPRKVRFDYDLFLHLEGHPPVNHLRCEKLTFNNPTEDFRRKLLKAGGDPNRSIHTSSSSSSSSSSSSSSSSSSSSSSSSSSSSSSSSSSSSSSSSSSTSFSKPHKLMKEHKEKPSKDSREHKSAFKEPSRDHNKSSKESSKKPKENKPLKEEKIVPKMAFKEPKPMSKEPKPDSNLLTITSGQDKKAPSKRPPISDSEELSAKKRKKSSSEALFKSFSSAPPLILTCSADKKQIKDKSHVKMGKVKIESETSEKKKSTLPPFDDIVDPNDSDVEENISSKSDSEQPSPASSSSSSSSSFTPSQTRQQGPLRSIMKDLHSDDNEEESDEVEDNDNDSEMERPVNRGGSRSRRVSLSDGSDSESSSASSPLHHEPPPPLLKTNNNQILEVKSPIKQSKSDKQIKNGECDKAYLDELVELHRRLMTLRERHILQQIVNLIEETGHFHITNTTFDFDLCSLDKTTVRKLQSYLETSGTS
PROCEDURE_DETAILS: Inhibition of N-terminal nanoLuc-tagged YEATS3 in HEK293T cells co-transfected with C-terminal halo-tagged histone 3.3 incubated for 24 hrs in presence of SAHA by NanoBRET assay
OBSERVABLE: IC50 (µM)

{"COMPOUND_STRING": "CCNC(=O)c1ccc2c([C@H]3CCN(CC4(O)CCCCC4)C[C@@H]3C)c(C)nn2c1", "OBSERVABLE": "IC50", "UNIT_LABEL": "µM", "REPORTED_MEASUREMENT": 2.98}

###

PROCEDURE_DETAILS: Cytotoxicity against human Bone marrow cell assessed as reduction in cell viability measured after 7 days
Format: toxicity, cell-based
CONDITION_INFO: bone marrow cells
Overview of reported IC50 at 7 days across a group of molecules:

{"MOLECULE": "CCNC(=O)c1ccc2c([C@H]3CCN(CC4(O)CCCCC4)C[C@@H]3C)c(C)nn2c1", "IC50 at 7 days": "> 50 nM"}
{"MOLECULE": "CCNC(=O)c1ccc2c(c1)nc(C)n2[C@H]1CCN(CC2(O)CCCCC2)C[C@@H]1C", "IC50 at 7 days": "> 100 nM"}
{"MOLECULE": "CCNC(=O)c1ccc2c(C3CCN(CC4(O)C5CC6CC(C5)CC4C6)CC3)c(C)nn2c1 (stereo not given)", "IC50 at 7 days": "22 nM"}
{"MOLECULE": "CCNC(=O)c1ccc2c([C@H]3CCN(CC4(O)CCOCC4)C[C@@H]3C)c(C)nn2c1", "IC50 at 7 days": "> 50 nM"}
{"MOLECULE": "CCNC(=O)c1ccc2c(c1)nc(C(F)F)n2[C@H]1CCN(CC2(O)CCCCC2)C[C@@H]1C", "IC50 at 7 days": "> 50 nM"}

###

Overview of reported logD across a group of molecules:
PROCEDURE_DETAILS: Lipophilicity, logD of the compound by shake flask method
Format: physicochemical
CONDITION_INFO: octanol/water
OBSERVABLE: logD

{"MOLECULE": "CCNC(=O)c1ccc2c(c1)nc(C)n2C1CCN(CC2(O)CCCCC2)CC1", "REPORTED_MEASUREMENT": 1.9}
{"MOLECULE": "CCNC(=O)c1ccc2c([C@H]3CCN(CC4(O)CCOCC4)C[C@@H]3C)c(C)nn2c1", "REPORTED_MEASUREMENT": 1.6}
{"MOLECULE": "CCNC(=O)c1ccc2c(c1)[nH]c(=O)n2C1CCN(CC2(O)CCCCC2)CC1", "REPORTED_MEASUREMENT": 1.7}
{"MOLECULE": "CCNC(=O)c1ccc2c(C3CCN(CC4(O)C5CC6CC(C5)CC4C6)CC3)c(C)nn2c1 (stereo unspecified)", "REPORTED_MEASUREMENT": 3.2}
{"MOLECULE": "CCNC(=O)c1ccc2c(c1)nc(C)n2[C@H]1CCN(CC2(O)CCCCC2)C[C@@H]1C", "REPORTED_MEASUREMENT": 2.4}
{"MOLECULE": "CCNC(=O)c1ccc2c(c1)nc(C(F)F)n2[C@H]1CCN(CC2(O)CCCCC2)C[C@@H]1C", "REPORTED_MEASUREMENT": 3.1}

###

STUDY_SYSTEM: Voltage-gated inwardly rectifying potassium channel KCNH2 (Homo sapiens, UniProt Q12809)
Sequence (Q12809 whole entry): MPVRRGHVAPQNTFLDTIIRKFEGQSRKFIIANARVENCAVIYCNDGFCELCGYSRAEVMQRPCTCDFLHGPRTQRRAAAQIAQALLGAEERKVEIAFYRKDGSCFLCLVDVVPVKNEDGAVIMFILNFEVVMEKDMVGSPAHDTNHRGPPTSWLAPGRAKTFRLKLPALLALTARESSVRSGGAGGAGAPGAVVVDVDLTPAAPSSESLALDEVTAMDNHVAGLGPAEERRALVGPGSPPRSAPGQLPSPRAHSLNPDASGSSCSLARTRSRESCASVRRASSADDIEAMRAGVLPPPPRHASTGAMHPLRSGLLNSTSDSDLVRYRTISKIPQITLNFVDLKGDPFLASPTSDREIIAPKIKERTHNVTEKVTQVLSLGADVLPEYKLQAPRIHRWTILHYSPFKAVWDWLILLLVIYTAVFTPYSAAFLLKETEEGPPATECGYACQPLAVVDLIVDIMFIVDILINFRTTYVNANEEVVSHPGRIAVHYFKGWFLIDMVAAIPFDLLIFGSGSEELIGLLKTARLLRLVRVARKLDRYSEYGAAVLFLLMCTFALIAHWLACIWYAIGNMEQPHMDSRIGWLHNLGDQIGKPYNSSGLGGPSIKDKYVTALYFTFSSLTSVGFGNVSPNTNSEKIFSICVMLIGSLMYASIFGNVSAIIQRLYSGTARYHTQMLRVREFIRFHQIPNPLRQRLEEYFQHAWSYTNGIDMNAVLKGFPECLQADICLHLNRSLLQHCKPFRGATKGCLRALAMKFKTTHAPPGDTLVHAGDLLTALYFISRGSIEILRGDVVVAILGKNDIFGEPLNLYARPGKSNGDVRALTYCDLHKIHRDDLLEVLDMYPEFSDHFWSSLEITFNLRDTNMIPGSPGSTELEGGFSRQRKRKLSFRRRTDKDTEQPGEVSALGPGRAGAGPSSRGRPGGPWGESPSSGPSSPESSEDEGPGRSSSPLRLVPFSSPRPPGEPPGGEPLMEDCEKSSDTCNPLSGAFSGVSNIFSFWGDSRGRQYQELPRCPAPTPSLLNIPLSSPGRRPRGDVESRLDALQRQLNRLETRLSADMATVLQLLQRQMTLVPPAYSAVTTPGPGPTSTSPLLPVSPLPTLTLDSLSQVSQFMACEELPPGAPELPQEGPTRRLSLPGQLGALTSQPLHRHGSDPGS
PROCEDURE_DETAILS: Inhibition of hERG assessed as inhibition constant by patch-clamp assay
Overview of reported Ki across a group of compounds:

{"COMPOUND": "CCNC(=O)c1ccc2c(c1)[nH]c(=O)n2C1CCN(CC2(O)CCCCC2)CC1", "Ki [µM]": 40.2}
{"COMPOUND": "CCNC(=O)c1ccc2c(C3CCN(CC4(O)C5CC6CC(C5)CC4C6)CC3)c(C)nn2c1 (centres undefined)", "Ki [µM]": 3.43}
{"COMPOUND": "CCNC(=O)c1ccc2c(c1)nc(C)n2C1CCN(CC2(O)CCCCC2)CC1", "Ki [µM]": 28.9}
{"COMPOUND": "CCNC(=O)c1ccc2c([C@H]3CCN(CC4(O)CCCCC4)C[C@@H]3C)c(C)nn2c1", "Ki [µM]": 4.64}
